Assay: Pharmacokinetics: LSD plasma levels by UHPLC-MS/MS
Assay type: in vivo
Details: both sexes, human, 1.5 hours after administration, single oral dose 20 μg LSD, read-out: mean (SD) plasma LSD concentration
measured.quantity: concentration at 1.5 h

State the recorded concentration at 1.5 h for this entry: CCN(CC)C(=O)[C@@H]1C=C2c3cccc4[nH]cc(c34)C[C@H]2N(C)C1 [LSD, (D)-lysergic acid diethylamide]
0.482 ng/mL

----------
Assay: Pharmacokinetics: LSD plasma levels by UHPLC-MS/MS
Type: in vivo
Conditions: both sexes, human, 6 hours post treatment, single oral dose 20 μg LSD, read-out: mean (SD) plasma LSD concentration
measured.quantity: concentration at 6 h (ng/mL)
Provide the reading as a plain figure in ng/mL.

Reported concentration at 6 h for CCN(CC)C(=O)[C@@H]1C=C2c3cccc4[nH]cc(c34)C[C@H]2N(C)C1 [LSD, (D)-lysergic acid diethylamide] : what is it?
0.223
